Source listed as PubChem BioAssay AID940.

biological target: Prostaglandin E2 receptor EP2 subtype (Homo sapiens) (UniProt P43116); experiment: EP2 receptor modulators, cAMP readout, primary screen, cell-based, HTRF cAMP, PGE2 stimulation (AID 940); conditions: EP2-expressing cells, cAMP HTRF FRET, PGE2 co-stimulation; at 25 µM;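 note: rat C6 glioma line stably carrying human EP2 under a CMV promoter; the protocol text gives 20 µM as final concentration; 100% = response of wells given 1 µM PGE2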
Sequence (P43116 whole entry, looked up): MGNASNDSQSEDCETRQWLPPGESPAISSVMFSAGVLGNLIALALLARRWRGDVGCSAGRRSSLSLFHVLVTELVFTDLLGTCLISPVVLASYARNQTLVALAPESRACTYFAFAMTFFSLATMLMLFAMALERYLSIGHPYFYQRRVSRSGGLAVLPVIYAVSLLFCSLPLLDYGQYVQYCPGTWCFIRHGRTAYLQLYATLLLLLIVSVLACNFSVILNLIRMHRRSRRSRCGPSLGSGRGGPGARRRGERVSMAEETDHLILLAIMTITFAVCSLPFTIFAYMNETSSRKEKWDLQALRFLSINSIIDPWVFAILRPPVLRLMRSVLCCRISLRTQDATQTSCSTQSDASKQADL
Screen size: about 260,000 compounds; about 2,200 (0.85%) were called active.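 Rule for the calls: active = compounds whose cAMP rise, as percent of the full-agonist control response, exceeds 60; inactive = the rest.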 The sample as a whole holds a higher share of actives than the screen did.
Outcome codes: true (1) for active, false (0) for inactive

COMPOUND | ASSIGNED_LABEL
Cc1nc2nc(N)ccc2c(C)c1C | false (0)
COC(=O)c1c(NC(=O)C2CC2)sc(C(=O)Nc2cc(C)ccc2C)c1C | false (0)
Cc1ccccc1OCCCC(=O)Nc1nnc(C2CCCCC2)s1 | false (0)
NC(=O)COc1ccc(NC(=O)c2ccccc2-c2ccccc2)cc1 | false (0)
O=C(CCn1c(SCC(=O)c2ccccc2)nc2ccccc2c1=O)NCc1ccc(F)cc1 | false (0)
Cc1ccccc1C(=O)Nc1ccc(N2CCCCCC2)cc1 | false (0)
Cc1occc1-c1nnc(SCC(=O)Nc2ccc3c(c2)OCO3)n1Cc1ccco1 | false (0)
COC(=O)c1c(NC(=O)C(C)C)sc(C(=O)Nc2cc(C)ccc2C)c1C | true (1)
CC(C)(C)C(=O)c1cn(CC(=O)N2CCCCC2)c2ccccc12 | false (0)
CC(C)c1nc(N2CCOCC2)c(C#N)c2c1COC(C)(C)C2 | false (0)
CCOC(=O)C(=O)Nc1sc(C(=O)Nc2cc(C)ccc2C)c(C)c1C(=O)OC | false (0)
COC(=O)CSc1nnc(-c2ccc3[nH]c(C)c(C)c3c2)o1 | false (0)
Cc1cc(C)nc(SCCn2c(N3CCC(C)CC3)nc3c2c(=O)[nH]c(=O)n3C)n1 | false (0)
CCn1cc(S(=O)(=O)N2CCC(CCc3ccc(C(=O)O)cc3)CC2)c(C)n1 | false (0)
COc1ccc(C2(C(=O)N3CCC(n4cnc5cccnc54)CC3)CCCC2)cc1 | false (0)
CC(C)Cc1nc(Cl)c(C#N)c2c1CCC2 | false (0)
CC(c1ccccc1)n1c(Br)nc2c1c(=O)n(C)c(=O)n2C (stereo not drawn) | false (0)
Nc1cc(-c2ccco2)nn(CC(=O)NCc2ccccc2)c1=O | false (0)
COc1ccc(CN(Cc2cn[nH]c2-c2ccc(O)cc2)CC2CCCO2)cc1 (stereo not drawn) | false (0)
NC(=O)COc1ccc(C23CC4CC(CC(C4)C2)C3)cc1 | true (1)
C=CCn1c(SCC(=O)Nc2ccccc2F)nc2sc(C)c(C)c2c1=O | false (0)
Cc1cc(C#N)c(SCC(N)=O)nc1-c1ccc(F)cc1 | true (1)
Cc1ccc(-n2c(SCC(=O)Nc3ccc4c(c3)OCO4)nnc2-c2ccccn2)cc1 | false (0)

----------
molecular target: Prostaglandin E2 receptor EP2 subtype (Homo sapiens) (UniProt P43116); test: EP2 receptor modulators, cAMP readout, primary screen, cell-based, HTRF cAMP, PGE2 stimulation (AID 940); conditions: EP2-expressing cells, cAMP HTRF FRET, PGE2 co-stimulation; at 25 µM;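 note: rat C6 glioma line stably carrying human EP2 under a CMV promoter; the protocol text gives 20 µM as final concentration; 100% = response of wells given 1 µM PGE2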
The campaign covered roughly 260,000 compounds. About 2,200 (0.85%) were called active.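 The calls were made as follows: active = compounds whose cAMP rise, as percent of the full-agonist control response, exceeds 60; inactive = the rest.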 Many of the other results were omitted from the sample, so actives are more common in it than they were.
Outcome codes: active, inactive

COMPOUND | ASSIGNED_LABEL
COc1cc(-c2nc3cnccn3c2NCC2CCCO2)ccc1O (stereo not given) | inactive
Cc1cc(-c2cnc(C)nc2C2CCN(C(=O)Cc3ccc(C)s3)CC2)on1 | inactive
CSc1ncc(C(=O)N2CC(CN3CCOCC3)c3ccccc32)cn1 (stereo not given) | inactive
O=C(NCc1nc(-c2cccnc2)n[nH]1)C(c1ccccc1)C1CCCCC1 (stereo not given) | inactive
CN(C(=O)C1CCCCC1)c1nc(-c2ccc(Cl)cc2)cs1 | inactive
COc1ccc(CN(Cc2cc3c(cc2OC)OCO3)CC2CCCO2)c(OC)c1 (stereo not given) | inactive
C#CCN(N(C)c1ncc(C(F)(F)F)cc1Cl)S(=O)(=O)c1ccc2ccccc2c1 | active
CCn1c(COc2ccc(Br)cc2)nnc1SCC(=O)NCc1ccccc1 | inactive
COc1cc(C2NC(=O)NC(C)=C2C(=O)Nc2ccc(C)cc2C)ccc1O (stereo not given) | inactive
Cc1cc(C)cc(NS(=O)(=O)c2ccc(Oc3ncc(C(F)(F)F)cc3Cl)cc2)c1 | inactive
